system: UniProt P24941
experiment-summary: Cell-Based Assay
measurement-context: sw480
pIC50: −log10 of the molar value.
Please respond with reported pIC50 for every item in the list.

O=[N+]([O-])c1ccc2c(c1)C(c1ccccc1Cl)=Nc1c(n[nH]c1-c1ccc[nH]1)N2 : 5.00 to 5.96
CC(C)c1[nH]nc2c1N=C(c1ccccc1Cl)c1cc([N+](=O)[O-])ccc1N2 : 6.00 to 8.00
O=[N+]([O-])c1ccc2c(c1)C(c1ccccc1F)=Nc1c[nH]nc1N2 : 5.00 to 5.96
Cc1[nH]nc2c1N=C(c1ccccc1Cl)c1cc(NS(=O)(=O)NCCl)ccc1N2 : 5.00 to 5.96

Return reported pIC50 values for all items listed beneath this line.
1. O=[N+]([O-])c1ccc2c(c1)C(c1ccccc1Cl)=Nc1c(n[nH]c1Cc1ccccc1)N2
2. Cc1[nH]nc2c1N=C(c1ccccc1)c1cc([N+](=O)[O-])ccc1N2

Reply text:
1: 4.52 to 5.00; 2: 6.00 to 8.00

Provide the reported pIC50 of each entry below, same order.
1. Cc1[nH]nc2c1N=C(c1ccccc1F)c1cc(C#N)ccc1N2
2. Cc1[nH]nc2c1N=C(c1ccccc1Cl)c1cc(NS(=O)(=O)N(C)C)ccc1N2
3. O=[N+]([O-])c1ccc2c(c1)C(c1ccccc1Cl)=Nc1c(n[nH]c1-c1ccco1)N2
4. Cc1[nH]nc2c1N=C(c1ccccc1F)c1cc([N+](=O)[O-])ccc1N2
5. Fc1ccccc1C1=Nc2c[nH]nc2Nc2ccccc21

Reply text:
["6.00 to 8.00", "5.00 to 5.96", "4.52 to 5.00", "6.00 to 8.00", "4.52 to 5.00"]
